Attribute: GI50
Tested on: Malme-3M
TEST_NAME: NCI tumour cell line growth inhibition, 48 h
Active and inactive are the calls of the source. Cut-off read from the data, not from the text of the source: active = GI50 up to about 1.1 µM and inactive = higher.

[
  {
    "COMPOUND": "C1=N\\c2ccc(cc2)-c2ccc(cc2)/N=C\\c2ccccc2OCc2cccc(n2)COc2ccccc2/1",
    "MEASURED_RESULT": "> 82.8 µM (inactive)"
  },
  {
    "COMPOUND": "CCc1n[nH]c(=O)n1/N=C/c1ccc(C)cc1",
    "MEASURED_RESULT": "> 100 µM (inactive)"
  },
  {
    "COMPOUND": "C1=C(c2ccccc2)C(N2CCOCC2)Oc2ccccc21 (stereo not given)",
    "MEASURED_RESULT": "> 100 µM (inactive)"
  },
  {
    "COMPOUND": "CCOP(=O)(OCC)/C(C#N)=C/c1cnc(-c2ccccc2)[nH]1",
    "MEASURED_RESULT": "> 100 µM (inactive)"
  }
]

Query compound follows.
What value of GI50 has been reported for the following compound? CC(C)(C)C1=C(Br)C(OC(=O)C(F)(F)F)(C(C)(C)C)OP1(=O)c1ccccc1 (stereo not given) 65 µM (inactive)

====

Tested on: A549
TEST_NAME: NCI tumour cell line growth inhibition, 48 h
Calls of active or inactive are those of the source. Rule as the data show it: active = GI50 up to about 1.1 µM and inactive = higher.
Attribute: GI50

Use these answered entries as a reference point.
[
  {
    "COMPOUND": "CCOc1ccccc1NC(=O)C1=C(C)NC(C)=C(C(=O)Nc2ccccc2OCC)C1c1ccc([N+](=O)[O-])cc1",
    "MEASURED_METRIC": "GI50",
    "MEASURED_RESULT": "> 100 µM (inactive)"
  },
  {
    "COMPOUND": "CSc1cc(Br)ccc1-n1c(C(=O)c2ccccc2)c(SC)n(-c2ccccc2)c1=O",
    "MEASURED_METRIC": "GI50",
    "MEASURED_RESULT": "> 100 µM (inactive)"
  },
  {
    "COMPOUND": "O=C(c1ccco1)N(C(=S)N1CCN(c2ccccn2)CC1)c1ccccc1",
    "MEASURED_METRIC": "GI50",
    "MEASURED_RESULT": "> 100 µM (inactive)"
  },
  {
    "COMPOUND": "COc1ccc(NC(=O)C(=O)C2CNC(=O)NC2=O)c(OC)c1 (stereo not given)",
    "MEASURED_METRIC": "GI50",
    "MEASURED_RESULT": "> 100 µM (inactive)"
  },
  {
    "COMPOUND": "COC(=O)C(C)Sc1nc2cc(Cl)ccc2s1 (stereo not given)",
    "MEASURED_METRIC": "GI50",
    "MEASURED_RESULT": "> 100 µM (inactive)"
  },
  {
    "COMPOUND": "Cc1ccc(NC(=O)CC(=O)n2nc(C)c(/N=N/c3ccccc3C(=O)O)c2C)cc1",
    "MEASURED_METRIC": "GI50",
    "MEASURED_RESULT": "> 100 µM (inactive)"
  }
]

What value of GI50 has been reported for the following compound? "O=C1c2cccc(NCCCNCCO)c2C(=O)c2cccc(NCCCNCCO)c21" 2 µM (inactive)
